Values from patent US20240207427A1

Tested on: renal carcinoma cells (786-O)
assay.explanation: In vitro potency (CellTiter-Glo, 96 h), 786-O
Format: cell-based
conditions: Homo sapiens, 786-0, 96 h, camptothecin free drug, 96 h; read-out: 786-O IC50
I'd be grateful if you could share measured pIC50 for these entries.
API: returns pIC50 as number; meaning -log10 of concentration in mol/L.

(Q) Please tell me the measured pIC50 for CC[C@@]1(O)C(=O)OCc2c1cc1n(c2=O)Cc2c-1nc1cc3c(cc1c2CN1CCC(NC(=O)OC(C)(C)C)CC1)OCO3 [Compound 7y] ; system: renal carcinoma cells (786-O).
(A) 7.51

(Q) Please tell me the measured pIC50 for CC[C@@]1(O)C(=O)OCc2c1cc1n(c2=O)Cc2c-1nc1cc3c(cc1c2CNCCCN(C)C(=O)OC(C)(C)C)OCO3 [Compound 7a] ; system: renal carcinoma cells (786-O).
(A) 6.95

(Q) Please tell me the measured pIC50 for CC[C@@]1(O)C(=O)OCc2c1cc1n(c2=O)Cc2c-1nc1cc3c(cc1c2CNC1CCN(C(=O)OC(C)(C)C)CC1)OCO3 [Compound 7q] ; system: renal carcinoma cells (786-O).
(A) 7.59

(Q) Please tell me the measured pIC50 for CC[C@@]1(O)C(=O)OCc2c1cc1n(c2=O)Cc2c-1nc1cc3c(cc1c2CN1CCN(CCNC(=O)OC(C)(C)C)CC1)OCO3 [Compound 7af] ; system: renal carcinoma cells (786-O).
(A) 6.75

====

I'd be grateful if you could share measured pIC50 for these entries.
Test system: renal carcinoma cells (786-O)
assay.explanation: In vitro potency (CellTiter-Glo, 96 h), 786-O
Assay type: cell-based
conditions: Homo sapiens, 786-0, 96 h, read-out: 786-O IC50, Table 29; CPT free drugs; renal carcinoma cells 786-O; 96 h, CellTiter-Glo
API: returns pIC50 as number; meaning -log10 of concentration in mol/L.

(Q) Entry CC[C@@]1(O)C(=O)OCc2c1cc1n(c2=O)Cc2c-1nc1cc3c(cc1c2CNC[C@H](O)CO)OCO3 needs its pIC50 filled in; supply it.
(A) 7.18

(Q) Entry CC[C@@]1(O)C(=O)OCc2c1cc1n(c2=O)Cc2c-1nc1cc3c(cc1c2CNCC(O)CN1CCOCC1)OCO3 (stereo partly shown) needs its pIC50 filled in; supply it.
(A) 6.93

(Q) Entry CC[C@@]1(O)C(=O)OCc2c1cc1n(c2=O)Cc2c-1nc1cc3c(cc1c2CNCCCN1CCNCC1)OCO3 needs its pIC50 filled in; supply it.
(A) 7.82

(Q) Entry CC[C@@]1(O)C(=O)OCc2c1cc1n(c2=O)Cc2c-1nc1cc3c(cc1c2CNC[C@@H](O)CN1CCCCC1)OCO3 needs its pIC50 filled in; supply it.
(A) 6.91

(Q) Entry CC[C@@]1(O)C(=O)OCc2c1cc1n(c2=O)Cc2c-1nc1cc3c(cc1c2CN1CCC(N)CC1)OCO3 needs its pIC50 filled in; supply it.
(A) 6.57

(Q) Entry CC[C@@]1(O)C(=O)OCc2c1cc1n(c2=O)Cc2c-1nc1cc3c(cc1c2CNCCN1CCNCC1)OCO3 needs its pIC50 filled in; supply it.
(A) 6.99

(Q) Entry CC[C@@]1(O)C(=O)OCc2c1cc1n(c2=O)Cc2c-1nc1cc3c(cc1c2CNCCCN1CCN(C)CC1)OCO3 needs its pIC50 filled in; supply it.
(A) 7.36

====

I'd be grateful if you could share measured pIC50 for these entries.
Tested on: anaplastic large cell lymphoma cells (Karpas299)
assay.explanation: In vitro potency (CellTiter-Glo, 96 h), Karpas299
Assay type: cell-based
conditions: Homo sapiens, KARPAS-299, 96 h, CPT free drugs, Table 24; CellTiter-Glo after 96 h exposure; read-out: IC50 (nmol/L) Karpas299
API: returns pIC50 as number; meaning -log10 of concentration in mol/L.

(Q) Entry CC[C@@]1(O)C(=O)OCc2c1cc1n(c2=O)Cc2c-1nc1cc(F)c(F)cc1c2CN needs its pIC50 filled in; supply it.
(A) 8.10

(Q) Entry CC[C@@]1(O)C(=O)OCc2c1cc1n(c2=O)Cc2c-1nc1cc(C)c(F)cc1c2CN needs its pIC50 filled in; supply it.
(A) 6.42

(Q) Entry CC[C@@]1(O)C(=O)OCc2c1cc1n(c2=O)Cc2c-1nc1ccc(SC(F)(F)F)cc1c2CN needs its pIC50 filled in; supply it.
(A) 7.43

(Q) Entry CC[C@@]1(O)C(=O)OCc2c1cc1n(c2=O)Cc2c-1nc1ccc(Br)cc1c2CN needs its pIC50 filled in; supply it.
(A) 7.97

(Q) Entry CC[C@@]1(O)C(=O)OCc2c1cc1n(c2=O)Cc2c-1nc1cc3c(cc1c2CN)CCC3 needs its pIC50 filled in; supply it.
(A) 7.43

(Q) Entry CC[C@@]1(O)C(=O)OCc2c1cc1n(c2=O)Cc2c-1nc1ccc(C)cc1c2CN needs its pIC50 filled in; supply it.
(A) 8.05

(Q) Entry [2H]C1([2H])Oc2cc3nc4c(c(CN)c3cc2O1)Cn1c-4cc2c(c1=O)COC(=O)[C@]2(O)CC needs its pIC50 filled in; supply it.
(A) 9.00

====

Tested on: anaplastic large cell lymphoma cells (Karpas299)
assay.explanation: In vitro potency (CellTiter-Glo, 96 h), Karpas299
Format: cell-based
conditions: Homo sapiens, KARPAS-299, 96 h, CPT free drugs, Table 24; CellTiter-Glo after 96 h exposure; read-out: IC50 (nmol/L) Karpas299
parameter: pIC50
API: returns pIC50 as number; meaning -log10 of concentration in mol/L.

(Q) Entry CC[C@@]1(O)C(=O)OCc2c1cc1n(c2=O)Cc2c-1nc1ccc(OC)cc1c2CN needs its pIC50 filled in; supply it.
(A) 8.15

(Q) Entry CC[C@@]1(O)C(=O)OCc2c1cc1n(c2=O)Cc2c-1nc1cc(Cl)c(C)c(F)c1c2CN needs its pIC50 filled in; supply it.
(A) 8.15

(Q) Entry CC[C@@]1(O)C(=O)OCc2c1cc1n(c2=O)Cc2c-1nc1cc(F)c(OC)c(F)c1c2CN needs its pIC50 filled in; supply it.
(A) 7.96

(Q) Entry CC[C@@]1(O)C(=O)OCc2c1cc1n(c2=O)Cc2c-1nc1ccc3c(c1c2CN)OCCO3 needs its pIC50 filled in; supply it.
(A) 7.47

(Q) Entry CC[C@@]1(O)C(=O)OCc2c1cc1n(c2=O)Cc2c-1nc1ccc(C(F)(F)F)cc1c2CN needs its pIC50 filled in; supply it.
(A) 6.66

(Q) Entry CC[C@@]1(O)C(=O)OCc2c1cc1n(c2=O)Cc2c-1nc1ccc3c(c1c2CN)OCC3 needs its pIC50 filled in; supply it.
(A) 6.88

(Q) Entry CC[C@@]1(O)C(=O)OCc2c1cc1n(c2=O)Cc2c-1nc1cccc(F)c1c2CN needs its pIC50 filled in; supply it.
(A) 7.57

(Q) Entry CC[C@@]1(O)C(=O)OCc2c1cc1n(c2=O)Cc2c-1nc1cc(F)ccc1c2CN needs its pIC50 filled in; supply it.
(A) 8.22

====

System: anaplastic large cell lymphoma cells (Karpas299)
assay.explanation: In vitro potency (CellTiter-Glo, 96 h), Karpas299
Assay type: cell-based
conditions: Homo sapiens, KARPAS-299, 96 h, CPT free drugs, Table 24; CellTiter-Glo after 96 h exposure; read-out: IC50 (nmol/L) Karpas299
I'd be grateful if you could share measured pIC50 for these entries.
API: returns pIC50 as number; meaning -log10 of concentration in mol/L.

(Q) Entry CC[C@@]1(O)C(=O)OCc2c1cc1n(c2=O)Cc2c-1nc1ccc(Cl)cc1c2CN needs its pIC50 filled in; supply it.
(A) 8.10

(Q) Entry CC[C@@]1(O)C(=O)OCc2c1cc1n(c2=O)Cc2c-1nc1cc(F)cc(F)c1c2CN needs its pIC50 filled in; supply it.
(A) 8.10

(Q) Entry CC[C@@]1(O)C(=O)OCc2c1cc1n(c2=O)Cc2c-1nc1cc(Br)c(C)c(F)c1c2CN needs its pIC50 filled in; supply it.
(A) 7.85

(Q) Entry CC[C@@]1(O)C(=O)OCc2c1cc1n(c2=O)Cc2c-1nc1ccc(F)cc1c2CN needs its pIC50 filled in; supply it.
(A) 7.74

(Q) Entry CC[C@@]1(O)C(=O)OCc2c1cc1n(c2=O)Cc2c-1nc1cc(F)c(C)cc1c2CN needs its pIC50 filled in; supply it.
(A) 8.52

====

System: acute myeloid leukemia cells (MOLM-13)
assay.explanation: In vitro potency (CellTiter-Glo, 96 h), MOLM-13
Assay type: cell-based
conditions: Homo sapiens, MOLM-13, 96 h, read-out: MOLM-13 IC50, Table 28; CPT free drugs; acute myeloid leukemia cells MOLM-13; 96 h, CellTiter-Glo
The label true (1) is reserved for IC50 strictly under 5 nM; false (0) covers values equal to or above it.

(Q) Strictly below 5 nM: is that where IC50 of CCc1c(C)c(F)cc2nc3c(c(CN)c12)Cn1c-3cc2c(c1=O)COC(=O)[C@]2(O)CC sits?
(A) false (0)

(Q) Strictly below 5 nM: is that where IC50 of CC[C@@]1(O)C(=O)OCc2c1cc1n(c2=O)Cc2c-1nc1cc(F)c(C)c(C=C(C)C)c1c2CN sits?
(A) true (1)

(Q) Strictly below 5 nM: is that where IC50 of C=C(C)c1c(C)c(F)cc2nc3c(c(CN)c12)Cn1c-3cc2c(c1=O)COC(=O)[C@]2(O)CC sits?
(A) true (1)

(Q) Strictly below 5 nM: is that where IC50 of CC[C@@]1(O)C(=O)OCc2c1cc1n(c2=O)Cc2c-1nc1cc3c(cc1c2CNC(=O)CN)CCO3 sits?
(A) false (0)

(Q) Strictly below 5 nM: is that where IC50 of CC[C@@]1(O)C(=O)OCc2c1cc1n(c2=O)Cc2c-1nc1cc(F)c(C)c(Cl)c1c2CNC(C)=O [Compound 12a] sits?
(A) true (1)

(Q) Strictly below 5 nM: is that where IC50 of CC[C@@]1(O)C(=O)OCc2c1cc1n(c2=O)Cc2c-1nc1cc3c(cc1c2CN)CC=C3 sits?
(A) false (0)

(Q) Strictly below 5 nM: is that where IC50 of CC[C@@]1(O)C(=O)OCc2c1cc1n(c2=O)Cc2c-1nc1cc(F)c(C)c(Cl)c1c2CNC(=O)CN [Compound 13a] sits?
(A) true (1)

(Q) Strictly below 5 nM: is that where IC50 of CC[C@@]1(O)C(=O)OCc2c1cc1n(c2=O)Cc2c-1nc1cc3c(cc1c2CNC(C)=O)OCO3 [Compound 12b] sits?
(A) true (1)
